Target: T1, His/Avi-CynoIL18BP (recombinant cynomolgus IL-18BP with His and Avi tags) (cynomolgus monkey)
T1 construct: also called cynomolgus IL-18BP-Avi-His
T1 chain: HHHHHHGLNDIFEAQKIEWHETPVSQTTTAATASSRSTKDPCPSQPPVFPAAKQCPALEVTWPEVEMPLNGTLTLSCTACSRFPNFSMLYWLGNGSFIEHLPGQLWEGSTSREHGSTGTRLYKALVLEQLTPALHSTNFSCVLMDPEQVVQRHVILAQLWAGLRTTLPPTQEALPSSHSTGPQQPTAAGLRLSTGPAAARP
Experiment: SPR Carterra LSA, IgG immobilized
pKd: −log10 of the molar value.
attribute-measured: pKd

>>> measured("anti-IL18BP antibody BP-12 (antibody, human IgG1, V domains shown) VH: EVQLQQSGPELVKPGASVKMSCKTSGYTFTEYTMHWVKQSHGKSLEWIGGVNPNNGGTTYNQKFRDKATLTVDKSSSTTYMEVRTLTSDDSAVYYCAPLWRVFDYWGQGTTLTVSS VL: DIVMTQSHKFMSSSVGDRVSITCKASQDVGTAVAWYQQKPGQSPKLLIYWASTRHTGVPDRFTGSGSGTDFTLTISNVQSEDLADYFCHQFSRYPLTFGAGTKLELK")
9.30
